biological target: HLA-DRB1*01:01 (Homo sapiens, UniProt P01903+P01911, A100R/D57E/F55L/F60I/F76Y/I96L/L162R/M171V/P40L/Q125E/R42F/V115G/Y59C); construct: endogenous in cells; test: Peptide/MHC-binding assay, competitive ELISA against biotinylated HA306-318; settings: relative binding activity; competitive ELISA, pH 6.0, 24 h at 37°C; two independent experiments
reported-endpoint: ratio of IC50 of Art v 1-peptides/HA306-318, HLA-DR1

Some entries whose results are on file:
sequence-string	measured
KCIEWEKGQHGA [Gly-32, mono-substituted peptide of Art v 1_25-36]	63
CDKKCIEWEKAQ [Art v 1_22-33]	2016
KCIEWEKAQHAA [Ala-35, mono-substituted peptide of Art v 1_25-36]	5
KCIAWEKAQHGA [Ala-28, mono-substituted peptide of Art v 1_25-36]	6
NKKCDKKCIEWE [Art v 1_19–30]	>55032

Which ratio of IC50 of Art v 1-peptides/HA306-318, HLA-DR1 is listed for KCIEWAKAQHGA [Ala-30, mono-substituted peptide of Art v 1_25-36] ? 6

I'd like to know its ratio of IC50 of Art v 1-peptides/HA306-318, HLA-DR1. The sequence in question is KCIEWEAAQHGA [Ala-31, mono-substituted peptide of Art v 1_25-36] 17

# get_value(readout='ratio of IC50 of Art v 1-peptides/HA306-318, HLA-DR1', item= KCAEWEKAQHGA [Ala-27, mono-substituted peptide of Art v 1_25-36] ) 2596

Report ratio of IC50 of Art v 1-peptides/HA306-318, HLA-DR1 for KAIEWEKAGHGA [Ala-26, mono-substituted peptide of Art v 1_25-36] please. 16

Name the reported ratio of IC50 of Art v 1-peptides/HA306-318, HLA-DR1 value associated with the sequence KCIEWEKAQHGA [Art v 1_25-36] 14

Look at this sequence and give its reported ratio of IC50 of Art v 1-peptides/HA306-318, HLA-DR1. KCIEWEKAQAGA [Ala-34, mono-substituted peptide of Art v 1_25-36] 8

###

molecular target: HLA-DRB1*04:01 (Homo sapiens, UniProt P01903+P01911, A100K/A169T/F76Y/I96L/K127E/L162R/M171V/N62H/P40V/Q125Y/R42H/S133A/S149N/S66Y/V115G/V209L/W38E); construct: endogenous in cells; test: Peptide/MHC-binding assay, competitive ELISA against biotinylated HA306-318; details: relative binding activity; competitive ELISA, pH 6.0, 24 h at 37°C; two independent experiments
reported-endpoint: ratio of IC50 of Art v 1-peptides/HA306-318, HLA-DR4
Provide a numeric answer; units are not to be included.

// solved cases for ratio of IC50 of Art v 1-peptides/HA306-318, HLA-DR4 follow
sequence-string	measured
KCIEWEKAQHGA [Art v 1_25-36]	15
KCIEWEKAQHAA [Ala-35, mono-substituted peptide of Art v 1_25-36]	5

Switching to the query record.
Give the measured ratio of IC50 of Art v 1-peptides/HA306-318, HLA-DR4 of KCIEWEAAQHGA [Ala-31, mono-substituted peptide of Art v 1_25-36] . 17
